- Tested on: HL-60
- EXPERIMENTAL_DETAILS: Cell cycle arrest in human HL60 cells assessed as accumulation at S phase at 10 uM after 16 hrs relative to control by flow cytometry
- Type: functional
METRIC: Activity (%)
# unit: % | format: bare number

C[C@@H]1CC[C@@]2(OC1)O[C@H]1C[C@H]3[C@@H]4CC=C5C[C@@H](O[C@@H]6O[C@H](CO)[C@@H](O)[C@H](O)[C@H]6O[C@H]6O[C@H](CO)[C@@H](O)[C@H](O)[C@@H]6O)CC[C@]5(C)[C@H]4CC[C@]3(C)[C@H]1[C@@H]2C ... 20.8
C[C@@H]1CC[C@@]2(OC1)O[C@H]1C[C@H]3[C@@H]4CC=C5C[C@@H](O[C@@H]6O[C@H](CO)[C@@H](O)[C@H](O)[C@H]6O[C@H]6O[C@@H](C)[C@@H](O)[C@@H](O)[C@@H]6O)CC[C@]5(C)[C@H]4CC[C@]3(C)[C@H]1[C@@H]2C ... 21.6
C[C@@H]1CC[C@@]2(OC1)O[C@H]1C[C@H]3[C@@H]4CC=C5C[C@@H](O[C@@H]6O[C@H](CO)[C@@H](O)[C@H](O)[C@H]6O[C@@H]6O[C@@H](C)[C@H](O)[C@@H](O)[C@H]6O)CC[C@]5(C)[C@H]4CC[C@]3(C)[C@H]1[C@@H]2C [OPHIOPOGONIN C] ... 22.7
C[C@@H]1CC[C@@]2(OC1)O[C@H]1C[C@H]3[C@@H]4CC=C5C[C@@H](O[C@@H]6O[C@H](CO)[C@@H](O)[C@H](O)[C@H]6O[C@@H]6O[C@H](CO)[C@H](O)[C@H](O)[C@H]6O)CC[C@]5(C)[C@H]4CC[C@]3(C)[C@H]1[C@@H]2C ... 21.7

Here CC(=O)OC[C@H]1O[C@@H](O[C@H]2CC[C@@]3(C)C(=CC[C@H]4[C@@H]5C[C@@H]6O[C@]7(CC[C@@H](C)CO7)[C@@H](C)[C@@H]6[C@@]5(C)CC[C@@H]43)C2)[C@H](O[C@@H]2O[C@@H](C)[C@H](O)[C@@H](O)[C@H]2O)[C@@H](O)[C@@H]1O was tested on HL-60, and its Activity came to 22.8
